- System: human apolipoprotein B mRNA
- assay-name: Inhibition of human apolipoprotein B mRNA levels in HepG2 cells, quantitative real-time PCR
- Assay type: cell-based
- stated-conditions: HepG2 cells; 50 nm oligonucleotide; variable deoxy gap position
# % INHIB 50 nm per entry
Give just the numeric value; % need not be written.

Some solved cases for reference:
- substance: "308660 (antisense TGGTAGCCTCAGTCTGCTTC; 2-10-8 2'-MOE gapmer, phosphorothioate, chemistry not fully specified) [compound 308660]"
  measured-target: "human apolipoprotein B mRNA"
  % INHIB 50 nm, %: 72
- substance: "308643 (antisense AGGTTACCAGCCACATGCAG; 3-10-7 2'-MOE gapmer, phosphorothioate, chemistry not fully specified) [compound 308643]"
  measured-target: "human apolipoprotein B mRNA"
  % INHIB 50 nm, %: 56

The substance listed as 308649 (antisense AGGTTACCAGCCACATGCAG; 6-10-4 2'-MOE gapmer, phosphorothioate, chemistry not fully specified) [compound 308649] shows % INHIB 50 nm equal to 68

###

- Test system: human apolipoprotein B mRNA
- assay-name: Inhibition of human apolipoprotein B mRNA levels in HepG2 cells, quantitative real-time PCR
- Format: cell-based
- stated-conditions: HepG2 cells treated with 150 nM of compound; averages from two experiments; quantitative real-time PCR
In the oligonucleotide strings, read from the 5' end, every base follows the letter of its sugar. An asterisk marks phosphorothioate; unmarked linkages are phosphodiester. Other units and linkages are bracketed, terminal groups are in braces. A string of capitals states the bases alone. e = 2'-O-(2-methoxyethyl) (MOE); [5mC] = 5-methylcytosine; d = 2'-deoxy (DNA)
experimental-endpoint: % INHIB (inhibition of human apolipoprotein B mRNA levels) (%)
Give just the numeric value; % need not be written.

The substance listed as 301038 (eG*e[5mC]*e[5mC]*eA*eG*d[5mC]*dT*dT*dT*dG*dG*dT*dG*d[5mC]*dA*eG*eG*eT*e[5mC]*e[5mC]; antisense) [compound 301038] shows % INHIB (inhibition of human apolipoprotein B mRNA levels) equal to 86

The substance listed as 281616 (antisense eG*eT*e[5mC]*eT*eA*dG*dA*dA*d[5mC]*dA*d[5mC]*d[5mC]*d[5mC]*dA*dG*eG*eA*eG*eA*eG) [compound 281616] shows % INHIB (inhibition of human apolipoprotein B mRNA levels) equal to 66

The substance listed as 271027 (e[5mC]*e[5mC]*e[5mC]*eA*eT*dG*d[5mC]*dT*d[5mC]*d[5mC]*dG*dT*dT*d[5mC]*dT*e[5mC]*eA*eG*eG*eT; antisense) [compound 271027] shows % INHIB (inhibition of human apolipoprotein B mRNA levels) equal to 26

###

- Test system: human apolipoprotein B mRNA
- assay-name: Inhibition of human apolipoprotein B mRNA levels in HepG2 cells, quantitative real-time PCR
- Format: cell-based
- stated-conditions: HepG2 cells; human apolipoprotein B mRNA; oligonucleotides targeting genomic sequence SEQ ID NO 334; averages from two experiments
In the oligonucleotide strings, read from the 5' end, every base follows the letter of its sugar. An asterisk marks phosphorothioate; unmarked linkages are phosphodiester. Other units and linkages are bracketed, terminal groups are in braces. A string of capitals states the bases alone. e = 2'-O-(2-methoxyethyl) (MOE); [5mC] = 5-methylcytosine; d = 2'-deoxy (DNA)
# % INHIB per entry

- substance: "301100 (antisense eT*eA*e[5mC]*eT*eG*dT*dG*dA*d[5mC]*d[5mC]*dT*dA*dT*dG*d[5mC]*e[5mC]*eA*eG*eG*eA) [compound 301100]"
  % INHIB: "55%"

The substance listed as 301148 (eA*eG*eA*eA*eA*dT*dT*dT*d[5mC]*dA*d[5mC]*dT*dA*dG*dA*eT*eA*eG*eA*eT; antisense) [compound 301148] shows % INHIB equal to 31%

The substance listed as 301177 (antisense eT*eG*eA*eA*eG*dA*d[5mC]*dA*dG*dG*dG*dA*dG*d[5mC]*d[5mC]*eA*e[5mC]*e[5mC]*eT*eA) [compound 301177] shows % INHIB equal to 40%

###

- System: rabbit apolipoprotein B mRNA
- assay-name: Inhibition of rabbit apolipoprotein B mRNA levels in primary rabbit hepatocytes, real-time PCR
- Assay type: cell-based
- Set-up: concentration or dose not given beside the values
In the oligonucleotide strings, read from the 5' end, every base follows the letter of its sugar. An asterisk marks phosphorothioate; unmarked linkages are phosphodiester. Other units and linkages are bracketed, terminal groups are in braces. A string of capitals states the bases alone. e = 2'-O-(2-methoxyethyl) (MOE); [5mC] = 5-methylcytosine; d = 2'-deoxy (DNA)
# % INHIB of rabbit apolipoprotein B mRNA levels per entry
Give just the numeric value; % need not be written.

Some solved cases for reference:
- substance: "233182 (antisense e[5mC]*eT*eT*eG*eA*dT*dA*d[5mC]*dT*dT*dG*dG*dT*dA*dT*e[5mC]*e[5mC]*eA*e[5mC]*eA) [compound 233182]"
  experimental-result: 59
- substance: "233190 (antisense eA*e[5mC]*eT*eT*eG*dA*dG*d[5mC]*dG*dT*dG*d[5mC]*d[5mC]*d[5mC]*dT*e[5mC]*eT*eA*eA*eT) [compound 233190]"
  experimental-result: 69
- substance: "233165 (antisense eG*eT*eA*eG*eA*dT*dA*d[5mC]*dT*d[5mC]*d[5mC]*dA*dT*dT*dT*eT*eG*eG*e[5mC]*e[5mC]) [compound 233165]"
  experimental-result: 0
- substance: "233188 (antisense eT*eT*eG*eT*eA*d[5mC]*dT*dG*dT*dA*dG*dT*dG*d[5mC]*dA*eT*e[5mC]*eA*eA*eT) [compound 233188]"
  experimental-result: 74
- substance: "233156 (antisense e[5mC]*eA*e[5mC]*eT*eG*dG*dA*dA*dA*d[5mC]*dT*dT*dG*dT*d[5mC]*eT*e[5mC]*eT*e[5mC]*e[5mC]) [compound 233156]"
  experimental-result: 23

Turning now to a further substance:
The substance listed as 233175 (antisense eG*eA*e[5mC]*e[5mC]*eT*dT*dG*dA*dG*dT*dA*dG*dA*dT*dT*e[5mC]*e[5mC]*eT*eG*eG) [compound 233175] shows % INHIB of rabbit apolipoprotein B mRNA levels equal to 90

###

- System: human apolipoprotein B mRNA
- assay-name: Inhibition of human apolipoprotein B mRNA levels in HepG2 cells, quantitative real-time PCR
- Format: cell-based
- stated-conditions: HepG2 cells; human apolipoprotein B mRNA; oligonucleotides targeting genomic sequence SEQ ID NO 334; averages from two experiments
In the oligonucleotide strings, read from the 5' end, every base follows the letter of its sugar. An asterisk marks phosphorothioate; unmarked linkages are phosphodiester. Other units and linkages are bracketed, terminal groups are in braces. A string of capitals states the bases alone. e = 2'-O-(2-methoxyethyl) (MOE); [5mC] = 5-methylcytosine; d = 2'-deoxy (DNA)
experimental-endpoint: % INHIB (%)
Give just the numeric value; % need not be written.

The substance listed as 301056 (e[5mC]*eA*eG*eT*eT*dG*dA*dA*dA*dT*dG*d[5mC]*dA*dG*d[5mC]*eT*eA*eA*eT*eG; antisense) [compound 301056] shows % INHIB equal to 35

The substance listed as 301173 (antisense e[5mC]*eA*eT*e[5mC]*eT*d[5mC]*dT*dA*dA*d[5mC]*d[5mC]*dT*dG*dG*dT*eG*eT*e[5mC]*e[5mC]*e[5mC]) [compound 301173] shows % INHIB equal to 21

The substance listed as 301185 (antisense eT*eG*e[5mC]*eT*eT*d[5mC]*dG*d[5mC]*dA*d[5mC]*d[5mC]*dT*dG*dG*dA*e[5mC]*eG*eA*eG*eT) [compound 301185] shows % INHIB equal to 51

The substance listed as 301061 (e[5mC]*eA*eT*eG*eA*d[5mC]*dT*dT*dA*d[5mC]*d[5mC]*dT*dG*dG*dA*e[5mC]*eA*eT*eG*eG; antisense) [compound 301061] shows % INHIB equal to 52

The substance listed as 301087 (antisense eA*e[5mC]*eA*eA*eG*dG*dA*dG*dT*d[5mC]*d[5mC]*dT*dT*dG*dT*eG*e[5mC]*eA*eG*eA) [compound 301087] shows % INHIB equal to 40

###

- Test system: human apolipoprotein B mRNA
- assay-name: Inhibition of human apolipoprotein B mRNA levels in HepG2 cells, quantitative real-time PCR
- Assay type: cell-based
- stated-conditions: HepG2 cells; 50 nM; 24 hour (Table 40)
e = 2'-O-(2-methoxyethyl) (MOE); d = 2'-deoxy (DNA)
experimental-endpoint: % Change in apolipoprotein B mRNA expression

Some solved cases for reference:
- substance: "332774 (antisense GCCTCATTATTATTAGCACC; sugars from the 5' end e5 d10 e5, all phosphorothioate, methylation of C not given here) [compound 332774]"
  experimental-result: "+62%"
- substance: "332776 (antisense GCCTAATTATTATTATCACC; sugars from the 5' end e5 d10 e5, all phosphorothioate, methylation of C not given here) [compound 332776]"
  experimental-result: "+10%"
- substance: "332772 (antisense GCCTCAGTATTATTCGCACC; sugars from the 5' end e5 d10 e5, all phosphorothioate, methylation of C not given here) [compound 332772]"
  experimental-result: "+99%"

Turning now to a further substance:
The substance listed as 332771 (antisense GCCTCAGTCTTATTCGCACC; sugars from the 5' end e5 d10 e5, all phosphorothioate, methylation of C not given here) [compound 332771] shows % Change in apolipoprotein B mRNA expression equal to +37%

Reference source for all entries: patent US7803930B2
